- TARGET_ENTITY: acetylcholinesterase (AChE) (Electrophorus electricus, UniProt O42275)
- Sequence (O42275 24-633): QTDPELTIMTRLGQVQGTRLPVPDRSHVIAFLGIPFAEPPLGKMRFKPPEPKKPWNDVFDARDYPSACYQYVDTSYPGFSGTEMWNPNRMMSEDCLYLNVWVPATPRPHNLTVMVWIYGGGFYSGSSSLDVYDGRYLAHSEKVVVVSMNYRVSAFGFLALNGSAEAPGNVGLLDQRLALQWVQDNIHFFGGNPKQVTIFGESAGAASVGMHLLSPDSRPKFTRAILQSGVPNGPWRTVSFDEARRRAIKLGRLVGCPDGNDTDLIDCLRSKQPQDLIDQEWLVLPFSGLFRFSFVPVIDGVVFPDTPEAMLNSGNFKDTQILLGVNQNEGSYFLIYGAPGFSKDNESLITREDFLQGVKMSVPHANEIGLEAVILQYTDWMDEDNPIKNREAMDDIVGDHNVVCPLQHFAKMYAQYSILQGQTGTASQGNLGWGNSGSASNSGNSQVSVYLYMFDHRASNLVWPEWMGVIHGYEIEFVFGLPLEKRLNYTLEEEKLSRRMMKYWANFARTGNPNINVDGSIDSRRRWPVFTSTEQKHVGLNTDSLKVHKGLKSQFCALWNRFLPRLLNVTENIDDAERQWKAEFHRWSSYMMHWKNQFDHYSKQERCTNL
pIC50: −log10 of the molar value.
QUANTITY_MEASURED: pIC50

[[record]]
item_smiles = "O=C([C@@H](F)[C@H](F)CCc1ccc2c(c1)OCO2)N1CCCCC1"
quantity_measured = "pIC50"
quantitative_readout = 4.29

